Values compiled from ChEMBL document CHEMBL1157794.

- Measurement Notes: Plasma concentration in dog at 1 mg/kg, iv administered for 30 mins
- Format: ADME, organism-based, Canis lupus familiaris
- Parameters: dose 1 mg/kg, route intravenous
Readout: concentration at 0.5 h (nM)
Number only, in nM; omit the unit.

Input line: // fetch concentration at 0.5 h given entry Cc1cc(C(=O)N[C@@H]2CC(C)(C)Oc3nc(-c4ccc(Cl)cc4Cl)c(-c4ccc(Cl)cc4)cc32)n[nH]1
Output line: 1630

====

- Measurement Notes: Half life in Beagle dog at 0.2 mg/kg, iv
- Type: ADME, organism-based, Canis lupus familiaris
- Parameters: dose 0.2 mg/kg, route intravenous
- Conditions: in vivo
Readout: half-life (h)
Number only, in h; omit the unit.

Input line: // fetch half-life given entry Cc1cc(C(=O)N[C@@H]2CC(C)(C)Oc3nc(-c4ccc(Cl)cc4Cl)c(-c4ccc(Cl)cc4)cc32)n[nH]1
Output line: 60
